B1: ZNF649 (parent)
chain: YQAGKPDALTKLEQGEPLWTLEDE

- Variants of: B1
- TEST_DETAILS: protein stability index of a GFP-peptide fusion (GPS, HEK-293T) (PSI 1-6); higher = more stable;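 note: lentivirally expressed fusions sorted by FACS into six bins by GFP to DsRed ratio, PSI derived from sequencing read proportions per bin multiplied by bin number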
- COND: c terminus: a fixed tail appended
Reported protein stability index is given for each of the following variants.

# VAR, protein stability index
rows = [
    ("L9S", 4.9),
    ("T10E", 4.5),
    ("G15F", 3.74),
    ("K11D", 4.86),
    ("Y1N", 5.22),
    ("L12V", 4.32),
    ("P17E", 4.21),
    ("K5P", 5),
    ("D23Q", 3.86),
    ("T20Q", 4.82),
    ("E13S", 4),
    ("L21K", 4.79),
    ("D7I", 2.61),
    ("G15D", 4.6),
    ("Y1H", 5.25),
    ("T10L", 4.39),
    ("W19E", 5.34),
    ("G15V", 4.62),
    ("E13V", 4.21),
    ("E22W", 2.35),
    ("Q14A", 4.11),
    ("T10N", 4.41),
]
